Measurement Target: Luciferin 4-monooxygenase (Photinus pyralis)
Test Details: Primary firefly luciferase (FLuc) qHTS assay for identification of artifact compounds. (AID 1845220); further: nearly all actives have a fitted effect of over 60% in size;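 on activity change, negative = inhibition: plate controls were DMSO vehicle for no effect and no enzyme for full effect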
Experimental Conditions: purified firefly luciferase, luminescence, 5 min; series mostly up to 54.1 µM
Calls of active or inactive are those of the source. The call rests on the fitted dose curve; in most records, active means well fitted inhibition curve with a large enough effect; inconclusive means small, poorly fitted or top-dose-only effect; inactive means flat fitted curve, though single readings scatter.
Reported Property: activity change, negative = inhibition

Some molecules with known activity change, negative = inhibition results, for comparison:
CC(C)=CC[C@H]1O[C@]2(O)C([C@H]3CCC4[C@@]5(C)CC[C@H](O[C@@H]6O[C@H](CO)[C@H](O)[C@H](O[C@@H]7O[C@H](CO)[C@@H](O)[C@H](O)[C@H]7O)[C@H]6O[C@@H]6O[C@@H](C)[C@H](O)[C@@H](O)[C@H]6O)C(C)(C)C5CC[C@@]4(C)[C@]3(C)[C@H]2O)[C@@]1(C)O (some centres undefined)	0.583% [at 11.6 µM] (inactive)
Cc1cccc(-c2nn3c(c2-c2ccnc4ccc(C(N)=O)cc24)CCC3)n1	inactive
C=C(C(=O)O)C1CC(O)C2(C)CCCC(C)(O)C2C1 (centres undefined)	inactive
O=C1OC(c2ccc(O)cc2)C(O)=C1Cc1ccccc1 (centres undefined)	inactive
CC(=O)[C@@H]1C[C@H](C(C)(C)O[C@@H]2O[C@H](CO)[C@@H](O)[C@H](O)[C@H]2O)CC[C@@]2(CO)OC(=O)C[C@@H]12	inactive
C/C=C(\C)C(=O)OC[C@H]1O[C@@H](O[C@H]2[C@@H](O[C@H]3O[C@H](COC(=O)/C(C)=C/C)[C@@H](O)[C@H](O)[C@H]3O[C@@H]3O[C@H](COC(=O)/C(C)=C/C)[C@@H](O)[C@H](OC(=O)/C(C)=C/C)[C@H]3O)O[C@H](COC(=O)/C(C)=C/C)[C@@H](O)[C@@H]2O)[C@H](O)[C@@H](O)[C@@H]1O	3.11% [at 11.6 µM] (inactive)
CC1=C2C[C@@]3(C)C(CCC[C@@H]3C)C(O)C2(O)OC1=O (some centres undefined)	inactive
COC(=O)C(CC1(OC(=O)C(C)C)c2ccccc2N2C(=O)C(C)(C)N(O)C21)n1cnc2ccccc2c1=O (centres undefined)	inactive
CC1(C)CC2C3=CCC4[C@@]5(C)CC[C@H](OC6OCC(O)C(OC7OC(CO)C(O)C(O)C7O)C6O)C(C)(C)C5CC[C@@]4(C)[C@]3(C)C[C@H](O)[C@@]2(CO)[C@H](OC(=O)c2ccccc2)C1 (some centres undefined)	-8.37% [at 11.6 µM] (inactive)
C=C1CCC2C(C)(C)CC(=O)CC2(C)C1CCC(C)CCO (centres undefined)	inactive

I have this molecule here, CC1(CO)CC(O)C2(C)CCC3(C)C(=CCC4C5(C=O)CCC(OC6OC(C(=O)O)C(O)C(O)C6OC6OC(C(=O)O)C(O)C(O)C6O)C(C)(C)C5CCC43C)C2C1 (centres undefined) , and I need its recorded activity change, negative = inhibition.
-10.9% [at 11.6 µM] (inactive)

Item: CC(C)C[C@H](NC(=O)[C@@H]1O[C@H]1C(=O)O)C(=O)NCCCCN=C(N)N
inactive

Item: O=C(C1OC1/C=C/c1ccc2c(c1)OCO2)N1CCCCC1 (centres undefined)
inactive

Item: C=CC1(C)CC=C2C(CCC3C(C)(C(=O)O)CCCC23C)C1 (centres undefined)
inactive
